Reference source: patent US20080207708A1

In this section, each of the compounds is paired with its reported IC50.
# Target desc: EP1 receptors (Homo sapiens)
# Test method notes: Binding assay for the human prostanoid EP1 receptor (competition with [3H]-PGE2)
# Set-up: expressed in transfected cells; host or cells: CHO-K1 cells, membrane fraction
# Test conditions: [3H]-PGE2 competition; averages of a number of experiments; read-out: pIC50 value, binding assay for the human prostanoid EP1 receptor (converted)
Structures can show the parent of a compound that is named as a salt.

- Compound: "O=C(O)Cc1csc(-c2cc(Cl)ccc2OCc2ccccc2Cl)n1 [Example 70]"
  IC50: "≤ 1000 nM"
- Compound: "CC(C)COc1ccc(Cl)cc1Cc1nc(-c2nc3ncccc3[nH]2)cs1 [Example 132]"
  IC50: "≤ 31.6 nM"
- Compound: "CC(C)COc1ccc(Cl)cc1C(F)(F)c1nc(-c2nc3ccccc3[nH]2)cs1 [Example 141, hydrochloride]"
  IC50: "≤ 1000 nM"

* * *

IC50 by entry:
# Target desc: EP1 receptors (Homo sapiens)
# Test method notes: Binding assay for the human prostanoid EP1 receptor (competition with [3H]-PGE2)
# Set-up: expressed in transfected cells; host or cells: CHO-K1 cells, membrane fraction
# Test conditions: [3H]-PGE2 competition; averages of a number of experiments; read-out: pIC50 value, binding assay for the human prostanoid EP1 receptor (converted)
Counter-ions that a name gives are not always drawn.
Property: IC50

- Compound: "CN(C)Cc1ccc(NC(=O)c2csc(Cc3cc(Cl)ccc3OCc3ccccc3)n2)cc1 [Example 118, hydrochloride]"
  Target desc: "EP1 receptors (Homo sapiens)"
  Endpoint value: "≤ 1000 nM"
- Compound: "CC(=O)Nc1csc(Cc2cc(Cl)ccc2OCc2ccccc2)n1 [Example 127]"
  Target desc: "EP1 receptors (Homo sapiens)"
  Endpoint value: "≤ 1000 nM"
- Compound: "O=C(O)c1nc(Cc2cc(Cl)ccc2OCc2ccc(F)cc2F)cs1 [Example 74]"
  Target desc: "EP1 receptors (Homo sapiens)"
  Endpoint value: "≤ 31.6 nM"
- Compound: "O=C(O)c1csc(Cc2cc(C(F)(F)F)ccc2OCC2CCCCC2)n1 [Example 42]"
  Target desc: "EP1 receptors (Homo sapiens)"
  Endpoint value: "≤ 1000 nM"
- Compound: "O=C(O)c1nc(Cc2cc(Cl)ccc2OCc2c(F)cc(F)cc2F)cs1 [Example 85]"
  Target desc: "EP1 receptors (Homo sapiens)"
  Endpoint value: "≤ 31.6 nM"
- Compound: "O=C(Nc1ccc(CN2CCCC2)cc1)c1csc(Cc2cc(Cl)ccc2OCc2ccccc2)n1 [Example 119]"
  Target desc: "EP1 receptors (Homo sapiens)"
  Endpoint value: "≤ 1000 nM"
- Compound: "Clc1ccc(OCc2ccccc2)c(Cc2nc(-c3cn4ccccc4n3)cs2)c1 [Example 160]"
  Target desc: "EP1 receptors (Homo sapiens)"
  Endpoint value: "≤ 1000 nM"
- Compound: "O=C(O)Cc1csc(-c2cc(Cl)ccc2OCc2cc(F)c(F)c(F)c2)n1 [Example 69]"
  Target desc: "EP1 receptors (Homo sapiens)"
  Endpoint value: "≤ 1000 nM"
- Compound: "OCCc1ccc2nc(-c3csc(Cc4cc(Cl)ccc4OCc4ccccc4)n3)[nH]c2c1 [Example 153]"
  Target desc: "EP1 receptors (Homo sapiens)"
  Endpoint value: "≤ 31.6 nM"
- Compound: "CC(C)COc1ccc(Cl)cc1Cc1nc(-c2nnc[nH]2)cs1 [Example 157]"
  Target desc: "EP1 receptors (Homo sapiens)"
  Endpoint value: "≤ 1000 nM"
- Compound: "CC(C)COc1ccc(Cl)cc1Cc1nc(-c2nc3nccnc3[nH]2)cs1 [Example 136]"
  Target desc: "EP1 receptors (Homo sapiens)"
  Endpoint value: "≤ 31.6 nM"
- Compound: "O=C(O)c1csc(Cc2cc(Br)ccc2OCc2c(F)cc(F)cc2F)n1 [Example 55]"
  Target desc: "EP1 receptors (Homo sapiens)"
  Endpoint value: "≤ 1000 nM"

* * *

# Target desc: EP1 receptors (Homo sapiens, UniProt P34995)
# Sequence (P34995 whole entry): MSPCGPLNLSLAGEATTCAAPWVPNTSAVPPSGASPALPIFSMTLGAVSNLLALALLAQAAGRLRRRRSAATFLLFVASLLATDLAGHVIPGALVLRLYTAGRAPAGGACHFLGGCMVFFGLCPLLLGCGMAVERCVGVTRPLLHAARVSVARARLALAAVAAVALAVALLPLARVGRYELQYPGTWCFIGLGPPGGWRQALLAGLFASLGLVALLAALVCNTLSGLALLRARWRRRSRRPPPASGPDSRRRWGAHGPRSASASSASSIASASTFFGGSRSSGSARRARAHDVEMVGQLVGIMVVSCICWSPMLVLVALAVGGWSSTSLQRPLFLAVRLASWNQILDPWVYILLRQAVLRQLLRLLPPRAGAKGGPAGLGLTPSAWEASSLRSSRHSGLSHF
# Test method notes: human EP1 calcium mobilisation assay (CHO-K1 cells, FLIPR, PGE2)
# Format: cell-based
# Design: expressed in transfected cells; host or cells: CHO-K1 cells, pCIN vector
# Test conditions: free bases or sodium salts; averages of a number of experiments; read-out: functional pKi value, human EP1 calcium mobilisation assay (converted)

- Molecule: "CC(C)COc1ccc(Cl)cc1Cc1nc(-c2nc3cnccc3[nH]2)cs1"
  Ki: "≤ 31.6 nM"
- Molecule: "CC(C)COc1ccc(Cl)cc1Cc1nc(-c2nc3ccc(CN4CCCC4)cc3[nH]2)co1"
  Ki: "< 1000 nM"
- Molecule: "CC(c1nc(C(=O)O)cs1)c1cc(Cl)ccc1OCc1ccccc1 (stereo not drawn)"
  Ki: "< 1000 nM"
